assay: Study 1 Part 1: ascending single-dose PK in healthy men; type: in vivo, human; details: male, human, plasma, oral, 50 mg, 50 mg single dose, N = 6, read-out: t1/2, Geometric mean (CV) (converted)
REPORTED ENDPOINT: half-life (h)
Write the number in h without appending the unit.

Problem: Item under review: "CC(C)(NC(=O)O[C@@H]1CN2CCC1CC2)c1csc(-c2ccc(F)cc2)n1" . Reported half-life?
Result: 28.5

---

assay: Study 1 Part 1: ascending single-dose PK in healthy men; format: in vivo, human; settings: male, human, plasma, po, single oral doses of 2 to 150 mg, read-out: geometric mean t1/2 (converted)
REPORTED ENDPOINT: half-life (h)
Report only the number, with the unit h understood.

Problem: If you can, please state the reported half-life value of CC(C)(NC(=O)O[C@@H]1CN2CCC1CC2)c1csc(-c2ccc(F)cc2)n1 [Compound 2] .
Result: 28.9

---

experiment: Study 1 Part 1: ascending single-dose PK in healthy men; type: in vivo, human; conditions: male, human, plasma, oral, 50 mg, 50 mg single dose, N = 6, read-out: Cmax, Mean (SD)
REPORTED ENDPOINT: Cmax (ng/mL)
Numeric only. Scale: ng/mL

Problem: Item "CC(C)(NC(=O)O[C@@H]1CN2CCC1CC2)c1csc(-c2ccc(F)cc2)n1" has what recorded Cmax?
Result: 181

---

test: Study 1 Part 1: ascending single-dose PK in healthy men; type: in vivo, human; conditions: male, human, plasma, oral, 15 mg, 15 mg single dose, N = 6, read-out: t1/2, Geometric mean (CV) (converted)
REPORTED ENDPOINT: half-life (h)
Please state the figure in h; there is no need to write the unit.

Problem: Need half-life of "CC(C)(NC(=O)O[C@@H]1CN2CCC1CC2)c1csc(-c2ccc(F)cc2)n1" , thanks.
Result: 29

---

test: Study 1 Part 1: ascending single-dose PK in healthy men; assay type: in vivo, human; conditions: male, human, plasma, oral, 2 mg, 2 mg single dose, N = 6, read-out: Vss/F, Geometric mean (CV)
REPORTED ENDPOINT: Vd/F (L)
A number alone suffices; assume L.

Problem: May I ask what Vd/F has been recorded for "CC(C)(NC(=O)O[C@@H]1CN2CCC1CC2)c1csc(-c2ccc(F)cc2)n1" ?
Result: 270

---

test: Study 1 Part 1: ascending single-dose PK in healthy men; type: in vivo, human; details: male, human, plasma, oral, 150 mg, 150 mg single dose, N = 5, read-out: t1/2, Geometric mean (CV) (converted)
REPORTED ENDPOINT: half-life (h)
Form entry: value (h) — number only.

Problem: Tell me the measured half-life of "CC(C)(NC(=O)O[C@@H]1CN2CCC1CC2)c1csc(-c2ccc(F)cc2)n1" , please.
Result: 26.4

---

assay: Study 1 Part 1: ascending single-dose PK in healthy men; assay type: in vivo, human; conditions: male, human, plasma, oral, 25 mg, 25 mg single dose, N = 6, read-out: Vss/F, Geometric mean (CV)
REPORTED ENDPOINT: Vd/F (L)
Please respond with the number in L and leave the unit unwritten.

Problem: Could you tell me which Vd/F is on file for CC(C)(NC(=O)O[C@@H]1CN2CCC1CC2)c1csc(-c2ccc(F)cc2)n1 [Compound 2] ?
Result: 228
